Quick reference: pKa of the listed items.
protocol-conditions: acidic group
measure-name: pKa

INSERT INTO measurements (smiles_string, measure_name, observed) VALUES
  ('C[N+](C)(C)Cc1cccc(O)c1O', 'pKa', 8.1),
  ('CCOc1ccc(C(=O)O)c(C)c1', 'pKa', 4.54),
  ('[O-][n+]1cnc(NCc2ccccc2)c2nc[nH]c21', 'pKa', 7.27),
  ('O=C(NO)c1cccc2ccccc12', 'pKa', 7.7),
  ('CC(=O)c1ccc(C(=O)O)s1', 'pKa', 3),
  ('COc1cc(/C=N/c2ncc3nc[nH]c3n2)ccc1O', 'pKa', 8.91),
  ('Cc1cc(C)c(O)c([N+](=O)[O-])c1', 'pKa', 7.98),
  ('Cc1nccc2c1[nH]c1cc(O)ccc12', 'pKa', 9.47),
  ('COC(=O)CS', 'pKa', 7.57),
  ('COc1cc(C(N)=O)ccc1-c1nc2c(ncn2C)[nH]1', 'pKa', 11.7),
  ('[NH3+][C@H]1CCC[C@H](C(=O)O)C1', 'pKa', 3.85),
  ('CC(=O)OCC(=N/O)/C(C)=N/O', 'pKa', 9.7),
  ('O=C(O)[C@@H](P)CC[C@H](P)C(=O)O', 'pKa', 3.62),
  ('OC(c1ccncc1)(c1ccncc1)c1ccncc1', 'pKa', 11.8);

====

protocol-conditions: basic group
Label Met when pKa is at or above 5; anything below gets Not met.

INSERT INTO measurements (compound, class_label) VALUES
  ('Cc1cc(N)cc(C)c1C', 'Met'),
  ('OCCCc1cccnc1', 'Met'),
  ('Nc1cccc2nnn([C@@H]3C[C@@H](O)[C@H](CO)O3)c12', 'Not met'),
  ('CC(C)(N)C(=O)O', 'Met'),
  ('COc1ccc(I)cc1C(=O)N[C@@H]1C[C@H]2CC[C@@H](C1)N2Cc1ccccc1', 'Met'),
  ('Cc1cc(=O)n(-c2ccccc2)n1C', 'Not met'),
  ('CSc1cc2ccccc2cn1', 'Not met'),
  ('CNC(C(=O)[O-])C(C)C (stereo not given)', 'Met'),
  ('CC[NH+](CC)CCNc1nc(C)cc(N)n1', 'Met'),
  ('Oc1ccc2cccnc2c1', 'Met'),
  ('Cc1ccccc1/C(=N/CCC[NH+](C)C)c1ccccc1', 'Not met'),
  ('N#Cc1cccc(N)c1', 'Not met'),
  ('Nc1nccs1', 'Met'),
  ('NCC(=O)CN', 'Met'),
  ('COc1cc2c(cc1O)CCN1Cc3c(ccc(OC)c3OC)C[C@@H]21', 'Met');

====

protocol-conditions: basic group
Tick label 1 if pKa is 4 or greater. Tick label 0 if pKa is less than 4.

INSERT INTO measurements (compound, class_label) VALUES
  ('CCC(=O)C1(c2cccc(O)c2)CCN(C)CC1', 'label 1'),
  ('Nc1nc(N)c2[nH]c(N)[nH+]c2n1', 'label 0'),
  ('Clc1ccc(-c2cnc(-c3ccccc3)o2)cc1', 'label 0'),
  ('Cn1ccc(N)n1', 'label 0'),
  ('Cc1nccn1C', 'label 1'),
  ('Nc1ncc2ccccc2n1', 'label 1'),
  ('N#CC(C#N)=NNc1ccc([N+](=O)[O-])cc1Cl', 'label 0'),
  ('Nc1nccc2c1ncn2CCOCP(=O)([O-])[O-]', 'label 1'),
  ('Cc1cccc(N)c1', 'label 1'),
  ('Nc1ccc2cncnc2c1', 'label 1'),
  ('CC(CC(c1ccccc1)c1ccccc1)N1CCOCC1 (stereo unspecified)', 'label 1'),
  ('CN1CCCN(C)Cc2ccccc2OCCOc2ccccc2C1', 'label 1'),
  ('Cc1cncc(C)[nH+]1', 'label 0'),
  ('CCN(CC)CC#N', 'label 1'),
  ('[NH3+]NC(=O)c1ccncc1', 'label 0'),
  ('C#CCCCN(C)C', 'label 1');
